B1: RSPH3 (parent)
chain: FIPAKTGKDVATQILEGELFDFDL

- Variants of: B1
- Test: protein stability index of a GFP-peptide fusion (GPS, HEK-293T) (PSI 1-6); higher = more stable;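 note: lentivirally expressed fusions sorted by FACS into six bins by GFP to DsRed ratio, PSI derived from sequencing read proportions per bin multiplied by bin number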
- Stated Conditions: c terminus: a fixed tail appended
Parameter threshold = 2. Response is 1 (yes) when protein stability index meets or exceeds it, else 0 (no).

INSERT INTO assay_data (mutation_key, group) VALUES
  ('D21R', '0 (no)');

Data request: // inclusive: protein stability index at least 2? input: `G17A`
Data returned: 1 (yes)

Data request: hey, is protein stability index for this one >= 2? `G17F`
Data returned: 1 (yes)

Data request: Entry `T6I` : is its protein stability index no less than 2?
Data returned: 1 (yes)

Data request: Please tell me: is the variant `T6D` at or over 2 in terms of protein stability index?
Data returned: 1 (yes)

Data request: Check this variant for protein stability index at or above 2: `F22M`
Data returned: 1 (yes)

Data request: Reported protein stability index at or above 2? `A4P`
Data returned: 0 (no)

Data request: Entry `T12W` : is its protein stability index no less than 2?
Data returned: 1 (yes)
